meta.source: patent US8614206B2

- tgt: PIM1 (Homo sapiens (Human))
Below, each entry is listed alongside its reported pKi.
pKi (log units): -log10 of the concentration in mol/L.

// worked examples, pKi included
compound | recorded measurement
Cn1ncc(NC(=O)c2nc(-c3ccccc3F)sc2N)c1N1CCNCC2(CCO2)C1 (racemic) [Example 477] | 9.73
Cn1ncc(NC(=O)c2nc(-c3c(F)ccc(I)c3F)sc2N)c1N1CC[C@H](N)CC(F)(F)C1 [Example 347] | 11.70
COc1cc(F)c(-c2nc(C(=O)Nc3cnn(C)c3N3CCC(N)CC(F)(F)C3)c(N)s2)c(F)c1 (centres unmarked) [Example 459] | 11.22
Cn1ncc(NC(=O)c2nc(-c3ccccc3F)cnc2N)c1N1CC[C@@H](N)CC(F)(F)C1 (single isomer, unassigned) [Example 248] | 11.15
COC1CCN(c2c(NC(=O)c3nc(-c4c(F)cccc4F)sc3N)cnn2C2CC2)CCC1N (single isomer, unassigned) [Example 403] | 9.68
Cn1ncc(NC(=O)c2nc(-c3ccccc3F)ccc2N)c1N1CCC(N)CC(F)(F)C1 (racemic) [Example 292] | 10.68
CCn1ncc(NC(=O)c2nc(-c3c(F)cccc3F)sc2N)c1N1CC[C@H](N)[C@@H](F)CC1 [Example 348] | 9.96
Nc1sc(-c2c(F)cccc2F)nc1C(=O)Nc1cnn(C2CC2)c1N1CC[C@@H](N)CC(F)(F)C1 [Example 345] | 11.15
CN[C@@H]1CCCN(c2c(NC(=O)c3nc(-c4c(F)cccc4F)sc3N)cnn2CC(F)F)CC1 [Example 107] | 10.10
Cn1ncc(NC(=O)c2nc(-c3ccccn3)sc2N)c1N1CCNCC(F)(F)C1 [Example 223] | 9.69

Continue with the next compound.
The recorded pKi for entry Nc1sc(-c2c(F)cccc2F)nc1C(=O)Nc1cnn(CC(F)F)c1N1CC[C@@H](N)CC(F)(F)C1 [Example 281] equals 10.70

* * *

- Tested on: MM1.S (multiple myeloma) cells
- test description: In vitro cell proliferation, MM1.S multiple myeloma cells (CellTiter-Glo, ATP)
- Format: cell-based
- stated conditions: 72 hours, read-out: Prolif MM1S ATP (EC50)
pEC50: −log10 of the molar value.
Assign true whenever pEC50 does not fall below 7; assign false whenever it does.

compound | group
Cn1ncc(NC(=O)c2nc(-c3c(F)cccc3F)sc2N)c1N1CCC(N)C(O)CC1 (single isomer, unassigned) [Example 327] | false
Nc1sc(-c2c(F)cccc2F)nc1C(=O)Nc1cnn(CC(F)F)c1N1CCC(N)C(O)CC1 (single isomer, unassigned) [Example 399] | true

Exercise: Given COC1CCC(c2c(NC(=O)c3nc(-c4ccccc4F)sc3N)cnn2C)CCC1N (stereo not shown) , state whether its pEC50 is at least 7.
Key: false

Exercise: Given COC1CCN(c2c(NC(=O)c3nc(-c4c(F)cccc4F)sc3N)cnn2C)CCC1N (stereo not shown) , state whether its pEC50 is at least 7.
Key: false

* * *

Dear all, this message contains Ki results, target or system PIM1 (Homo sapiens (Human)).
The number alone won't do; follow it with the unit.

// worked examples, Ki included
compound | tgt | Ki
Cc1ccc(F)c(-c2nc(C(=O)Nc3cnn(C)c3N3CCNCC(F)(F)C3)c(N)s2)c1 [Example 105] | PIM1 (Homo sapiens (Human)) | 0.019 nM
Nc1sc(-c2c(F)cccc2F)nc1C(=O)Nc1cnn(C2CC2)c1N1CCC(N)C(F)CC1 (single isomer, unassigned) [Example 331] | PIM1 (Homo sapiens (Human)) | 0.0647 nM
Cn1ncc(NC(=O)c2nc(-c3ccncc3F)sc2N)c1N1CC[C@@H](N)CC(F)(F)C1 [Example 447] | PIM1 (Homo sapiens (Human)) | 0.014 nM
CC(=O)NC1(C)CCCN(c2c(NC(=O)c3nc(-c4ncccc4F)sc3N)cnn2C)CC1 (centres unmarked) [Example 384] | PIM1 (Homo sapiens (Human)) | 0.613 nM
Cn1ncc(NC(=O)c2nc(-c3ccccc3F)sc2N)c1N1CCCC(C)(N)CC1 (single isomer, unassigned) [Example 434] | PIM1 (Homo sapiens (Human)) | 0.093 nM
Cc1c(-c2nc(C(=O)Nc3cnn(C)c3N3CC[C@@H](N)[C@H](F)CC3)c(N)s2)cnn1C [Example 429] | PIM1 (Homo sapiens (Human)) | 0.315 nM

The recorded Ki for entry Cc1c(-c2nc(C(=O)Nc3cnn(C)c3N3CCC(N)CC(F)(F)C3)c(N)s2)cnn1C (centres unmarked) [Example 460] equals 0.026 nM

The recorded Ki for entry Cn1ncc(NC(=O)c2nc(-c3ccccc3F)ccc2N)c1N1CC[C@@H](N)CC(F)(F)C1 [Example 250] equals 0.03 nM

The recorded Ki for entry Cn1ncc(NC(=O)c2nc(-c3c(F)cncc3F)sc2N)c1N1CC[C@H](N)[C@@H](F)CC1 (stereo in doubt) [Example 472] equals 0.086 nM

* * *

- Test system: MM1.S (multiple myeloma) cells
- test description: In vitro cell proliferation, MM1.S multiple myeloma cells (CellTiter-Glo, ATP)
- Assay type: cell-based
- stated conditions: 72 hours, read-out: Prolif MM1S ATP (EC50)
Below, each entry is listed alongside its reported pEC50.
pEC50 (log units): -log10 of the concentration in mol/L.

compound | pEC50
CCn1ncc(NC(=O)c2nc(-c3c(F)cccc3F)sc2N)c1N1CCC(N)C(OC)CC1 (single isomer, unassigned) [Example 407] | 5.46

The recorded pEC50 for entry Cn1ncc(NC(=O)c2nc(-c3c(F)cccc3F)sc2N)c1N1CCC(N)C(O)CC1 (single isomer, unassigned) [Example 337] equals 7.51

The recorded pEC50 for entry CNC1CCN(c2c(NC(=O)c3nc(-c4c(F)cccc4F)sc3N)cnn2C)CC(F)(F)C1 (stereo not shown) [Example 408] equals 5.62

* * *

- System: MM1.S (multiple myeloma) cells
- test description: In vitro cell proliferation, MM1.S multiple myeloma cells (CellTiter-Glo, ATP)
- Assay type: cell-based
- stated conditions: 72 hours, read-out: Prolif MM1S ATP (EC50)
readout type: EC50 (nM)
Please state the figure in nM; there is no need to write the unit.

molecule | EC50, nM
COC1(C)CCN(c2c(NC(=O)c3nc(-c4c(F)cccc4F)sc3N)cnn2C)CCC1N (single isomer, unassigned) [Example 502] | 2200
Cn1ncc(NC(=O)c2nc(-c3c(F)cccc3F)sc2N)c1C1CCC(N)CC(C)(O)C1 (single isomer, unassigned) [Example 468] | 824

The recorded EC50 for entry CCOC1CCN(c2c(NC(=O)c3nc(-c4c(F)cccc4F)sc3N)cnn2C)CCC1N (stereo not drawn) [Example 514] equals 3100

* * *

- tgt: PIM1 (Homo sapiens (Human), UniProt P11309)
- Sequence (P11309 whole entry): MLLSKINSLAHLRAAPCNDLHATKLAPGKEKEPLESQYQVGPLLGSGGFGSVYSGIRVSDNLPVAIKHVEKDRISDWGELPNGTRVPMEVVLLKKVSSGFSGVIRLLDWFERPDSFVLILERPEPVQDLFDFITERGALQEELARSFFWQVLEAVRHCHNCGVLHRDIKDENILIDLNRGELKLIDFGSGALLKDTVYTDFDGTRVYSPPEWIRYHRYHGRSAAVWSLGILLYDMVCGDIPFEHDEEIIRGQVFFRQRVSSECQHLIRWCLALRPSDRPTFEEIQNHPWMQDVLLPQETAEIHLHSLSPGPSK
pKi: −log10 of the molar value.
Assign Condition met whenever pKi does not fall below 10; assign Condition not met whenever it does.

These recorded examples may help you get a feel for the data.
compound | group
Cc1ccc(F)c(-c2nc(C(=O)Nc3cnn(C)c3N3CC[C@H](N)CC(F)(F)C3)c(N)s2)c1 | Condition met
Cn1ncc(NC(=O)c2nc(-c3c(F)cccc3F)sc2N)c1N1CCC(N)CC(C)(F)C1 (stereo not drawn) | Condition met
Cn1ncc(NC(=O)c2nc(-c3c(F)cccc3F)sc2N)c1N1CCC[C@H](N(CC2COC2)CC2COC2)CC1 | Condition not met
Cc1c(-c2nc(C(=O)Nc3cnn(C)c3N3CC[C@@H](N)CC(F)(F)C3)c(N)s2)cnn1C | Condition met
Cn1ncc(NC(=O)c2nc(-c3c(F)cccc3F)sc2N)c1N1CCC2(CNC2)C1 | Condition not met

Exercise: Given COC1(C)CC(N)CCN(c2c(NC(=O)c3nc(-c4ccncc4F)sc3N)cnn2C)C1 (racemic) [Example 441] , state whether its pKi is at least 10.
Key: Condition met

Exercise: Given `Cn1cc(-c2nc(C(=O)Nc3cnn(C)c3N3CCC[C@H](N)CC3)c(N)s2)cn1` , state whether its pKi is at least 10.
Key: Condition not met

Exercise: Given Cn1ncc(NC(=O)c2nc(-c3c(F)cccc3F)sc2N)c1N1CCC(N)C2(CCO2)CC1 (single isomer, unassigned) , state whether its pKi is at least 10.
Key: Condition met

Exercise: Given Cc1ccc(F)c(-c2nc(C(=O)Nc3cnn(C4CC4)c3N3CCC(N)C(F)CC3)c(N)s2)c1 (stereo not drawn) [Example 329] , state whether its pKi is at least 10.
Key: Condition not met

Exercise: Given `CN[C@@H]1CCCN(c2c(NC(=O)c3nc(-c4cc(F)ccc4F)sc3N)cnn2CC(F)F)CC1` , state whether its pKi is at least 10.
Key: Condition not met

Exercise: Given `CCn1ncc(NC(=O)c2nc(-c3c(F)cccc3F)sc2N)c1N1CC[C@H](N)[C@H](OC)CC1` , state whether its pKi is at least 10.
Key: Condition not met

Exercise: Given `Cc1ncccc1-c1nc(C(=O)Nc2cnn(C)c2N2CC[C@@H](N)[C@H](F)CC2)c(N)s1` , state whether its pKi is at least 10.
Key: Condition not met
